We begin with a simple list: items and their reported yeast fitness (ln).
B1: tRNA (parent)
chain: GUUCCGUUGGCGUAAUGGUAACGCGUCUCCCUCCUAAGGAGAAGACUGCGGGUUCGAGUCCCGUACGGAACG

Variants of: B1
Protocol details: yeast fitness, log relative to wild type (ln ratio); higher = fitter; tRNA-Arg(CCU), competitive growth, 37 C, 1 M NaCl
Lab note: record just the number, no unit beside it.

Variant spec	Reported result
G1A U2G G6U C27U C46U C66U A69G A70G	-0.308
U2G A43C C71U	-0.102

Now for the variant whose yeast fitness (ln) we want.
Look up and report measured yeast fitness (ln) for this entry: U2G G6A A43C C46U C66U A69G C71U -0.303
